Overview of recorded Ki for various molecules
# measured-on: UniProtKB P30411
# protocol-description: Displacement of [3H]-Bradykinin from human bradykinin B2 receptor expressed in CHO cells membrane after 60 mins by scintillation counting
# Type: cell membranes
The response must be a number in nM with no trailing unit.

>  <compound-smiles>
Cc1cc(C)c2cccc(OCc3c(Cl)ccc(S(=O)(=O)NC4(C(=O)N5CCN(C(=O)[C@@H](N)CCCCN)CC5)CCOCC4)c3Cl)c2n1

>  <measured-on>
UniProtKB P30411

>  <Ki (nM)>
0.1

$$$$

Q: Check the records and state Ki for `Cc1cc(C)c2cccc(OCc3c(Cl)ccc(S(=O)(=O)NC4(C(=O)N5CCN(CCCCCC[N+](C)(C)C)CC5)CCOCC4)c3Cl)c2n1`
Ans: 0.0631

Q: Check the records and state Ki for `Cc1cc(C)c2cccc(OCc3c(Cl)ccc(S(=O)(=O)NC4(C(=O)N5CCN(C(=O)CCCCN)CC5)CCOCC4)c3Cl)c2n1`
Ans: 0.0794

Q: Check the records and state Ki for `Cc1cc(C)c2cccc(OCc3c(Cl)ccc(S(=O)(=O)NC4(C(=O)N5CCN(C(=O)CCCCC[N+](C)(C)C)CC5)CCOCC4)c3Cl)c2n1`
Ans: 0.126

Q: Check the records and state Ki for `Cc1cc(C)c2cccc(OCc3c(Cl)ccc(S(=O)(=O)NC4(C(=O)N5CCN(C(=O)CCC[N+](C)(C)C)CC5)CCOCC4)c3Cl)c2n1`
Ans: 0.126

Q: Check the records and state Ki for `Cc1cc(C)c2cccc(OCc3c(Cl)ccc(S(=O)(=O)NC4(C(=O)N5CC[N+](C)(CCC[N+](C)(C)C)CC5)CCOCC4)c3Cl)c2n1`
Ans: 0.1

Q: Check the records and state Ki for `Cc1cc(C)c2cccc(OCc3c(Cl)ccc(S(=O)(=O)NC4(C(=O)N5CC[N+]6(CCCCC6)CC5)CCOCC4)c3Cl)c2n1`
Ans: 0.398

Q: Check the records and state Ki for `Cc1cc(C)c2cccc(OCc3c(Cl)ccc(S(=O)(=O)NC4(C(=O)N5CCN(C(=O)[C@@H](N)CCCC[N+](C)(C)C)CC5)CCOCC4)c3Cl)c2n1`
Ans: 0.251

Q: Check the records and state Ki for `Cc1cc(C)c2cccc(OCc3c(Cl)ccc(S(=O)(=O)NC4(C(=O)N5CCN(C(=O)[C@@H](N)CCCCN(C)C)CC5)CCOCC4)c3Cl)c2n1`
Ans: 0.0631

Q: Check the records and state Ki for `Cc1cc(C)c2cccc(OCc3c(Cl)ccc(S(=O)(=O)NC4(C(=O)N5CCN(C(=O)[C@@H](N)CCCN(C)C)CC5)CCOCC4)c3Cl)c2n1`
Ans: 0.0501

====

# measured-on: B2 bradykinin receptor (Homo sapiens, UniProt P30411)
# Sequence (P30411 whole entry): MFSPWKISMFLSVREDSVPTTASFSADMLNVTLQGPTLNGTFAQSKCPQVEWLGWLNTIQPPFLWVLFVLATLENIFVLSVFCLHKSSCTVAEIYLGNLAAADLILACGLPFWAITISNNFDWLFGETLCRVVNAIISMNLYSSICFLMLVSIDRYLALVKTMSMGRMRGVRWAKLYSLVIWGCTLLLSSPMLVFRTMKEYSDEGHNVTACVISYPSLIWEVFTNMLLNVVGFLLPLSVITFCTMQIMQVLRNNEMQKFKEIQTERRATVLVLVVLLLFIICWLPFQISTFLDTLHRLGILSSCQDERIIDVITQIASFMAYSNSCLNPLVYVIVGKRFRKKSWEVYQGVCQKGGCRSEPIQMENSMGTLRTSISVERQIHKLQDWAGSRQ
# protocol-description: Antagonist activity at human bradykinin B2 receptor expressed in dhfr-deficient CHO cells assessed as inhibition of bradykinin-induced inositol monophosphate accumulation preincubated for 15 mins prior bradykinin induction measured after 40 mins by liquid scintillation spectrometry
# Format: functional, cell-based
# condition-summary: read-out: pA2 (converted)
Overview of recorded Kb for various molecules
The response must be a number in nM with no trailing unit.

Q: Check the records and state Kb for `Cc1cc(C)c2cccc(OCc3c(Cl)ccc(S(=O)(=O)NC4(C(=O)N5CCN(C(=O)[C@@H](N)CCCN(C)C)CC5)CCOCC4)c3Cl)c2n1`
Ans: 0.123

Q: Check the records and state Kb for `Cc1cc(C)c2cccc(OCc3c(Cl)ccc(S(=O)(=O)NC4(C(=O)N5CC[N+]6(CCCC6)CC5)CCOCC4)c3Cl)c2n1`
Ans: 3.16

Q: Check the records and state Kb for `Cc1cc(C)c2cccc(OCc3c(Cl)ccc(S(=O)(=O)NC4(C(=O)N5CCN(C(=O)CCCC[N+](C)(C)C)CC5)CCOCC4)c3Cl)c2n1`
Ans: 0.316

Q: Check the records and state Kb for `Cc1cc(C)c2cccc(OCc3c(Cl)ccc(S(=O)(=O)NC4(C(=O)N5CCN(C(=O)C[N+](C)(C)C)CC5)CCOCC4)c3Cl)c2n1`
Ans: 0.794
